# protocol.notes: growth effects on S. cerevisiae YJM789 – YJM789 clinical isolate, OD600, 24 h, basal, primary screen (AID 1089);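 also: growth of clinical yeast isolate S. cerevisiae YJM 789 seeded 1000 cells per well; test concentration not given here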
# measurement.parameters: higher = more signal, called active from +8 up or from −8 down
Some compounds, each annotated with its measured z-score.
measured.parameter: z-score

INSERT INTO results (compound, measured) VALUES
  ('CCCC=C(CCC)[C@@H](NS(=O)(=O)c1ccc(Cl)cc1)c1ccc(C(=O)OC)cc1', -0.288),
  ('Cc1c(NC(=O)/C(C#N)=C/c2cccc([N+](=O)[O-])c2)c(=O)n(-c2ccccc2)n1C', -3.18),
  ('C=CCN(Cc1ccccc1)C(=O)C(c1cccs1)N(C(=O)/C=C\C(=O)O)c1ccc(CCOCCO)cc1 (stereo not drawn)', -1.22),
  ('OCC1C=C(/C=C/c2ccccc2)CN1Cc1ccccc1Br (stereo not drawn)', -0.486),
  ('C[N+](C)(C)CCCC[C@@H]1NC(=O)[C@H]2C[C@@H](C(=O)NCCCCCCNC(=O)CS)[C@@H](c3ccc(O)cc3)N2C1=O', -0.304),
  ('NC(=O)N1C(=O)C2C(C1=O)C1C=C(CCCO)C2C(C2CC2)N1Cc1cc2c(cc1Br)OCO2 (stereo not drawn)', -1.07),
  ('COc1cc2c(cc1O)C(c1cccs1)N(Cc1ccc([N+](=O)[O-])o1)CC2 (stereo not drawn)', -2.77),
  ('COC(=O)C(CC#Cc1ccc2c(c1)[C@]1(C(=O)N2)[C@H](c2ccc(O)cc2)N2[C@H](c3ccccc3)[C@H](c3ccccc3)OC(=O)[C@H]2[C@@H]1C(=O)N1CCN(c2ncccn2)CC1)C(=O)OC', 1.07);
